# credit: PubChem BioAssay (NCI)

# measurement notes: NCI Yeast Anticancer Drug Screen. Data for the mlh1 rad18 strain (AID 175)
# particulars: S. cerevisiae mlh1 rad18 strain growth inhibition; at 50.0 µM; active compounds read high
This is part of a sample that, as a whole, favours compounds with a hit. Of some 79,000 tested, about 15% had one in any assay.
Measured growth inhibition, listed per entry.
readout type: growth inhibition (%)

NC(C(=O)O)c1ccc(C(=O)O)cc1 (stereo not drawn) | 20.5
Cc1c2sc3ccccc3[nH]c2nc2[nH]c3ccccc3sc12 | 0.95
CCCOC(=O)c1c(Cl)c(Cl)c(Cl)c(Cl)c1C(=O)OCCC | 8.3
C=C(C)C(O)C(O)C(=C)C (stereo not drawn) | -4
CCCCCC(C(C)=O)C(C)=O | -15.6
N#C/C(=C\c1c(Cl)cccc1Cl)c1ccc([N+](=O)[O-])cc1 | 5.1
CN(C=O)c1ccccc1 | 3.05
CCc1ccc2[nH]c(C(=O)O)cc2c1 | 4.45
Oc1ccc2c(c1)c1ccccc1c1ncccc21 | 49
Fc1ccc(NC(=S)Nc2ccc(F)cc2)cc1 | 3.4
CN1CC(C(N)=O)=CC(C(N)=O)C1 (stereo not drawn) | 7.5
OCC1OC(n2ncc3c(Nc4ccccc4)ncnc32)C(O)C1O (stereo not drawn) | 17.9
CCOc1ccc(N2C(C#N)c3ccccc3OC2c2ccccc2O)cc1 (stereo not drawn) | 11.6
